# method: Plasma and urine pharmacokinetics (HPLC-UV) in patients after 60-min IV infusion
# Assay type: in vivo, human
# details: human, plasma, intravenous, 4 mg, patient no. 7; 4 mg m-2; day 1 course 1; two-compartment model; read-out: MRT
endpoint: MRT (h)
Give bare numbers, in h.

What value of MRT has been recorded for this entry: C[C@@](O)(/C=C/[C@H]1CC=CC(=O)O1)[C@@H](C[C@@H](O)\C=C/C=C\C=C\CO)OP(=O)(O)O
1.93

###

# method: Plasma and urine pharmacokinetics (HPLC-UV) in patients after 60-min IV infusion
# Type: in vivo, human
# details: human, plasma, intravenous, 4 mg, patient no. 7; 4 mg m-2; day 1 course 1; two-compartment model; read-out: t1/2 (initial) (converted)
endpoint: half-life (min)
One number for each entry, in min.

What value of half-life has been recorded for this entry: C[C@@](O)(/C=C/[C@H]1CC=CC(=O)O1)[C@@H](C[C@@H](O)\C=C/C=C\C=C\CO)OP(=O)(O)O
15.6

###

# method: Plasma and urine pharmacokinetics (HPLC-UV) in patients after 60-min IV infusion
# Format: in vivo, human
# details: human, plasma, intravenous, 12.2 mg, patient no. 16; 12.2 mg m-2; day 1 course 1; two-compartment model; read-out: MRT
endpoint: MRT (min)
Numbers only, in min.

What value of MRT has been recorded for this entry: C[C@@](O)(/C=C/[C@H]1CC=CC(=O)O1)[C@@H](C[C@@H](O)\C=C/C=C\C=C\CO)OP(=O)(O)O
56.4

###

# method: Plasma and urine pharmacokinetics (HPLC-UV) in patients after 60-min IV infusion
# Format: in vivo, human
# details: human, plasma, intravenous, 12.2 mg, patient no. 16; 12.2 mg m-2; day 1 course 1; two-compartment model; read-out: t1/2 (initial) (converted)
endpoint: half-life
The reply must contain the numeric value and, after it, the unit.

What value of half-life has been recorded for this entry: C[C@@](O)(/C=C/[C@H]1CC=CC(=O)O1)[C@@H](C[C@@H](O)\C=C/C=C\C=C\CO)OP(=O)(O)O [fostriecin]
13.2 min

###

# method: Plasma and urine pharmacokinetics (HPLC-UV) in patients after 60-min IV infusion
# Assay type: in vivo, human
# details: human, plasma, intravenous, 20 mg, patient no. 19; 20 mg m-2; sampling on day 1 of course 2; two-compartment model; read-out: t1/2 (initial) (converted)
endpoint: half-life (min)
One number for each entry, in min.

What value of half-life has been recorded for this entry: C[C@@](O)(/C=C/[C@H]1CC=CC(=O)O1)[C@@H](C[C@@H](O)\C=C/C=C\C=C\CO)OP(=O)(O)O
1.8

###

# method: Plasma and urine pharmacokinetics (HPLC-UV) in patients after 60-min IV infusion
# Type: in vivo, human
# details: human, plasma, intravenous, 6.6 mg, patient no. 12; 6.6 mg m-2; day 1 course 1; observed value
endpoint: Cmax (ng/mL)
Numbers only, in ng/mL.

What value of Cmax has been recorded for this entry: C[C@@](O)(/C=C/[C@H]1CC=CC(=O)O1)[C@@H](C[C@@H](O)\C=C/C=C\C=C\CO)OP(=O)(O)O [fostriecin]
1860

###

# method: Plasma and urine pharmacokinetics (HPLC-UV) in patients after 60-min IV infusion
# Type: in vivo, human
# details: human, plasma, intravenous, 6.6 mg, patient no. 12; 6.6 mg m-2; day 1 course 1; two-compartment model
endpoint: AUC
The reply must contain the numeric value and, after it, the unit.

What value of AUC has been recorded for this entry: C[C@@](O)(/C=C/[C@H]1CC=CC(=O)O1)[C@@H](C[C@@H](O)\C=C/C=C\C=C\CO)OP(=O)(O)O
2450 ng·h/mL

###

# method: Plasma and urine pharmacokinetics (HPLC-UV) in patients after 60-min IV infusion
# Assay type: in vivo, human
# details: human, plasma, intravenous, 20 mg, patient no. 19; 20 mg m-2; sampling on day 1 of course 2; two-compartment model; read-out: t1/2 (terminal) (converted)
endpoint: half-life (min)
One number for each entry, in min.

What value of half-life has been recorded for this entry: C[C@@](O)(/C=C/[C@H]1CC=CC(=O)O1)[C@@H](C[C@@H](O)\C=C/C=C\C=C\CO)OP(=O)(O)O
32.4

###

# method: Plasma and urine pharmacokinetics (HPLC-UV) in patients after 60-min IV infusion
# Type: in vivo, human
# details: human, plasma, intravenous, 20 mg, patient no. 19; 20 mg m-2; sampling on day 1 of course 2; two-compartment model; read-out: MRT
endpoint: MRT (min)
Numbers only, in min.

What value of MRT has been recorded for this entry: C[C@@](O)(/C=C/[C@H]1CC=CC(=O)O1)[C@@H](C[C@@H](O)\C=C/C=C\C=C\CO)OP(=O)(O)O
22.8

###

# method: Plasma and urine pharmacokinetics (HPLC-UV) in patients after 60-min IV infusion
# Format: in vivo, human
# details: human, plasma, intravenous, two-compartment model; 95% CI 0.41-1.97 h; read-out: mean residence time (MRT)
endpoint: MRT (h)
Numbers only, in h.

What value of MRT has been recorded for this entry: C[C@@](O)(/C=C/[C@H]1CC=CC(=O)O1)[C@@H](C[C@@H](O)\C=C/C=C\C=C\CO)OP(=O)(O)O
1.19

###

# method: Plasma and urine pharmacokinetics (HPLC-UV) in patients after 60-min IV infusion
# Type: in vivo, human
# details: human, plasma, intravenous, 6.6 mg, patient no. 11; 6.6 mg m-2; day 1 course 1; two-compartment model; read-out: t1/2 (initial) (converted)
# Procedure: Fostriecin (CI-920) is a topoisomerase (topo) II catalytic activity inhibitor (Boritzki et al, 1988) (Figure 1). […] Drug pharmacokinetics was analysed with high performance liquid chromatography with UV-detection. […] A metabolite, most probably dephosphorylated fostriecin, was detected in plasma and urine. […]
endpoint: half-life (min)
Give bare numbers, in min.

What value of half-life has been recorded for this entry: C[C@@](O)(/C=C/[C@H]1CC=CC(=O)O1)[C@@H](C[C@@H](O)\C=C/C=C\C=C\CO)OP(=O)(O)O
5.4

###

# method: Plasma and urine pharmacokinetics (HPLC-UV) in patients after 60-min IV infusion
# Format: in vivo, human
# details: human, plasma, intravenous, 12.2 mg, patient no. 18; 12.2 mg m-2; day 1 course 1; observed value
endpoint: Cmax (ng/mL)
Answers are plain numbers, in ng/mL.

What value of Cmax has been recorded for this entry: C[C@@](O)(/C=C/[C@H]1CC=CC(=O)O1)[C@@H](C[C@@H](O)\C=C/C=C\C=C\CO)OP(=O)(O)O [fostriecin]
2790

###

# method: Plasma and urine pharmacokinetics (HPLC-UV) in patients after 60-min IV infusion
# Assay type: in vivo, human
# details: human, plasma, intravenous, 20 mg, patient no. 19; 20 mg m-2; sampling on day 1 of course 2; observed value
endpoint: Cmax (ng/mL)
One number for each entry, in ng/mL.

What value of Cmax has been recorded for this entry: C[C@@](O)(/C=C/[C@H]1CC=CC(=O)O1)[C@@H](C[C@@H](O)\C=C/C=C\C=C\CO)OP(=O)(O)O [fostriecin]
3850

###

# method: Plasma and urine pharmacokinetics (HPLC-UV) in patients after 60-min IV infusion
# Type: in vivo, human
# details: human, plasma, intravenous, 12.2 mg, patient no. 18; 12.2 mg m-2; day 1 course 1; two-compartment model; read-out: t1/2 (terminal) (converted)
endpoint: half-life (h)
One number for each entry, in h.

What value of half-life has been recorded for this entry: C[C@@](O)(/C=C/[C@H]1CC=CC(=O)O1)[C@@H](C[C@@H](O)\C=C/C=C\C=C\CO)OP(=O)(O)O
5.1

###

# method: Plasma and urine pharmacokinetics (HPLC-UV) in patients after 60-min IV infusion
# Type: in vivo, human
# details: human, plasma, intravenous, 4 mg, patient no. 6; 4 mg m-2; day 1 course 1; one-compartment model
endpoint: AUC (ng·h/mL)
Give bare numbers, in ng·h/mL.

What value of AUC has been recorded for this entry: C[C@@](O)(/C=C/[C@H]1CC=CC(=O)O1)[C@@H](C[C@@H](O)\C=C/C=C\C=C\CO)OP(=O)(O)O
1170

###

# method: Plasma and urine pharmacokinetics (HPLC-UV) in patients after 60-min IV infusion
# Type: in vivo, human
# details: human, plasma, intravenous, 2 mg, patient no. 3; 2 mg m-2; day 1 course 1; one-compartment model; read-out: MRT
# Experimental: Fostriecin (CI-920) is a topoisomerase (topo) II catalytic activity inhibitor (Boritzki et al, 1988) (Figure 1). […] Drug pharmacokinetics was analysed with high performance liquid chromatography with UV-detection. […] A metabolite, most probably dephosphorylated fostriecin, was detected in plasma and urine. […]
endpoint: MRT (min)
Answers are plain numbers, in min.

What value of MRT has been recorded for this entry: C[C@@](O)(/C=C/[C@H]1CC=CC(=O)O1)[C@@H](C[C@@H](O)\C=C/C=C\C=C\CO)OP(=O)(O)O [fostriecin]
46.2
